# key: entry, value: viability, T/C
tested on: 233499-124-R-J3-PDC spheroids with HUVEC/MSC, viability; test: Anticancer human tumor 233499-124-R-J3-PDC patient-derived colon adenocarcinoma cell line growth inhibition [PI3K]; details: second compound 0.0316 µM; first compound 3.16 µM; stronger effect = lower value

{"columns": ["molecule", "assayed.system", "viability, T/C"],
 "data": [
  ["C#Cc1c(F)ccc2cc(O)cc(-c3ncc4c(N5CC6CCC(C5)N6)nc(OCC56CCCN5CC(F)C6)nc4c3F)c12 (stereo not drawn) + CC(Nc1ccc2c(c1)OCCn1cc(N3C(=O)OCC3C(F)F)nc1-2)C(N)=O", "233499-124-R-J3-PDC spheroids with HUVEC/MSC, viability", "95.8%"],
  ["CC(C)NCC(C(=O)N1CCN(c2ncnc3c2C(C)CC3O)CC1)c1ccc(Cl)cc1 (stereo not drawn) + CC(Nc1ncnc2nc[nH]c12)c1cc2cccc(Cl)c2c(=O)n1-c1ccccc1", "233499-124-R-J3-PDC spheroids with HUVEC/MSC, viability", "77.1%"],
  ["C=CC(=O)N1CCN(c2nc(=O)n(-c3c(C)ccnc3C(C)C)c3nc(-c4c(O)cccc4F)c(F)cc23)C(C)C1 (stereo not drawn) + COc1c(OCCCN2CCOCC2)ccc2c3n(c(=NC(=O)c4cnc(N)nc4)nc12)CCN3", "233499-124-R-J3-PDC spheroids with HUVEC/MSC, viability", "103%"]
]}

---

tested on: 233499-124-R-J3-PDC spheroids with HUVEC/MSC, viability; assay: Anticancer human tumor 233499-124-R-J3-PDC cell line growth inhibition [PI3K]; details: second compound 10 µM; first compound 1 µM; stronger effect = lower value;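 also: spheroids exposed to agents for seven days before readout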;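 as to viability, T/C: percent viability relative to DMSO vehicle control taken as 100%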
property: viability, T/C

{"columns": ["compound", "reading"],
 "data": [
  ["CC(Cn1ccc(-c2ccc(C#N)c(Cl)c2)n1)NC(=O)c1cc(C(C)O)[nH]n1 (stereo not given) + CC(Nc1ncnc2nc[nH]c12)c1cc2cccc(Cl)c2c(=O)n1-c1ccccc1", "102%"],
  ["CC(C)NCC(C(=O)N1CCN(c2ncnc3c2C(C)CC3O)CC1)c1ccc(Cl)cc1 (stereo not given) + Cc1nc(NC(=O)N2CCCC2C(N)=O)sc1-c1ccnc(C(C)(C)C(F)(F)F)c1", "22.6%"],
  ["CC1(C)CCC(CN2CCN(c3ccc(C(=O)NS(=O)(=O)c4ccc(NCC5CCOCC5)c([N+](=O)[O-])c4)c(Oc4cnc5[nH]ccc5c4)c3)CC2)=C(c2ccc(Cl)cc2)C1 + CC(Nc1ncnc2nc[nH]c12)c1cc2cccc(Cl)c2c(=O)n1-c1ccccc1", "94.7%"],
  ["CNC(=O)c1ccc(N2C(=S)N(c3ccc(C#N)c(C(F)(F)F)c3)C(=O)C2(C)C)cc1F + CC(Nc1ncnc2nc[nH]c12)c1cc2cccc(Cl)c2c(=O)n1-c1ccccc1", "95.6%"],
  ["C#Cc1c(F)ccc2cc(O)cc(-c3ncc4c(N5CC6CCC(C5)N6)nc(OCC56CCCN5CC(F)C6)nc4c3F)c12 (stereo not given) + CC(Nc1ncnc2nc[nH]c12)c1cc2cccc(Cl)c2c(=O)n1-c1ccccc1", "84.7%"],
  ["C=CC(=O)N1CCN(c2nc(=O)n(-c3c(C)ccnc3C(C)C)c3nc(-c4c(O)cccc4F)c(F)cc23)C(C)C1 (stereo not given) + Cc1nc(NC(=O)N2CCCC2C(N)=O)sc1-c1ccnc(C(C)(C)C(F)(F)F)c1", "41.8%"],
  ["CC1(C)CCC(Nc2ncc(C(F)(F)F)c(-c3c[nH]c4c(P(C)(C)=O)c(C#N)ccc34)n2)CN1 (stereo not given) + Cc1nc(NC(=O)N2CCCC2C(N)=O)sc1-c1ccnc(C(C)(C)C(F)(F)F)c1", "27.1%"],
  ["CC1(C)CCC(Nc2ncc(C(F)(F)F)c(-c3c[nH]c4c(P(C)(C)=O)c(C#N)ccc34)n2)CN1 (stereo not given) + CC(Nc1ncnc2nc[nH]c12)c1cc2cccc(Cl)c2c(=O)n1-c1ccccc1", "20.7%"],
  ["CC(Cn1ccc(-c2ccc(C#N)c(Cl)c2)n1)NC(=O)c1cc(C(C)O)[nH]n1 (stereo not given) + Cc1nc(NC(=O)N2CCCC2C(N)=O)sc1-c1ccnc(C(C)(C)C(F)(F)F)c1", "42.2%"],
  ["C[C@@H](NC(=O)c1ncnc(N)c1Cl)c1ncc(C(=O)Nc2cc(C(F)(F)F)c(Cl)cn2)s1 + CC(Nc1ncnc2nc[nH]c12)c1cc2cccc(Cl)c2c(=O)n1-c1ccccc1", "97.7%"]
]}

---

tested on: 233499-124-R-J3-PDC spheroids with HUVEC/MSC, viability; test: Anticancer human tumor 233499-124-R-J3-PDC cell line growth inhibition [PI3K]; details: second compound 1 µM; first compound 0.1 µM; active = viability on the fitted dose curve at most 10% of control; inactive = the rest;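 also: spheroids exposed to agents for seven days before readout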
Possible outcomes: active, inactive

{"columns": ["molecule", "cat"],
 "data": [
  ["CC(Cn1ccc(-c2ccc(C#N)c(Cl)c2)n1)NC(=O)c1cc(C(C)O)[nH]n1 (stereo unspecified) + CC(Nc1ncnc2nc[nH]c12)c1cc2cccc(Cl)c2c(=O)n1-c1ccccc1", "inactive"],
  ["CCN1CCN(Cc2ccc(Nc3ncc(F)c(-c4cc(F)c5nc(C)n(C(C)C)c5c4)n3)nc2)CC1 + CC(Nc1ccc2c(c1)OCCn1cc(N3C(=O)OCC3C(F)F)nc1-2)C(N)=O", "inactive"],
  ["C[C@@H](NC(=O)c1ncnc(N)c1Cl)c1ncc(C(=O)Nc2cc(C(F)(F)F)c(Cl)cn2)s1 + CC(Nc1ccc2c(c1)OCCn1cc(N3C(=O)OCC3C(F)F)nc1-2)C(N)=O", "inactive"],
  ["C=CC(=O)N1CCN(c2nc(=O)n(-c3c(C)ccnc3C(C)C)c3nc(-c4c(O)cccc4F)c(F)cc23)C(C)C1 (stereo unspecified) + COc1c(OCCCN2CCOCC2)ccc2c3n(c(=NC(=O)c4cnc(N)nc4)nc12)CCN3", "inactive"],
  ["CC1(C)CCC(Nc2ncc(C(F)(F)F)c(-c3c[nH]c4c(P(C)(C)=O)c(C#N)ccc34)n2)CN1 (stereo unspecified) + COc1c(OCCCN2CCOCC2)ccc2c3n(c(=NC(=O)c4cnc(N)nc4)nc12)CCN3", "active"],
  ["Cn1nccc1Nc1nccc(-c2ccn(C(CO)c3ccc(Cl)c(F)c3)c(=O)c2)n1 (stereo unspecified) + Cc1nc(NC(=O)N2CCCC2C(N)=O)sc1-c1ccnc(C(C)(C)C(F)(F)F)c1", "inactive"],
  ["C=CC(=O)N1CCN(c2nc(=O)n(-c3c(C)ccnc3C(C)C)c3nc(-c4c(O)cccc4F)c(F)cc23)C(C)C1 (stereo unspecified) + CC(Nc1ncnc2nc[nH]c12)c1cc2cccc(Cl)c2c(=O)n1-c1ccccc1", "inactive"],
  ["CC(=O)c1c(C)c2cnc(Nc3ccc(N4CCNCC4)cn3)nc2n(C2CCCC2)c1=O + COc1c(OCCCN2CCOCC2)ccc2c3n(c(=NC(=O)c4cnc(N)nc4)nc12)CCN3", "active"],
  ["C#Cc1c(F)ccc2cc(O)cc(-c3ncc4c(N5CC6CCC(C5)N6)nc(OCC56CCCN5CC(F)C6)nc4c3F)c12 (stereo unspecified) + COc1c(OCCCN2CCOCC2)ccc2c3n(c(=NC(=O)c4cnc(N)nc4)nc12)CCN3", "active"],
  ["Cn1ncnc1[C@H]1c2n[nH]c(=O)c3cc(F)cc(c23)N[C@@H]1c1ccc(F)cc1 + COc1c(OCCCN2CCOCC2)ccc2c3n(c(=NC(=O)c4cnc(N)nc4)nc12)CCN3", "active"],
  ["CC1(C)CCC(Nc2ncc(C(F)(F)F)c(-c3c[nH]c4c(P(C)(C)=O)c(C#N)ccc34)n2)CN1 (stereo unspecified) + CC(Nc1ncnc2nc[nH]c12)c1cc2cccc(Cl)c2c(=O)n1-c1ccccc1", "inactive"]
]}

---

test system: 233499-124-R-J3-PDC spheroids with HUVEC/MSC, viability; experiment: Anticancer human tumor 233499-124-R-J3-PDC cell line growth inhibition [PI3K]; settings: curve of first compound; second compound 0.0316 µM;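 also: spheroids exposed to agents for seven days before readout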
pIC50: −log10 of the molar value.
pIC50 by entry:
property: pIC50

{"columns": ["molecule", "assayed.system", "comparative.sign", "reading"],
 "data": [
  ["CC(C)NCC(C(=O)N1CCN(c2ncnc3c2C(C)CC3O)CC1)c1ccc(Cl)cc1 (configuration not stated) + CC(Nc1ccc2c(c1)OCCn1cc(N3C(=O)OCC3C(F)F)nc1-2)C(N)=O", "233499-124-R-J3-PDC spheroids with HUVEC/MSC, viability", "<", 5.00],
  ["CC1(C)CCC(Nc2ncc(C(F)(F)F)c(-c3c[nH]c4c(P(C)(C)=O)c(C#N)ccc34)n2)CN1 (configuration not stated) + CC(Nc1ncnc2nc[nH]c12)c1cc2cccc(Cl)c2c(=O)n1-c1ccccc1", "233499-124-R-J3-PDC spheroids with HUVEC/MSC, viability", "=", 6.69],
  ["CCCS(=O)(=O)Nc1ccc(F)c(C(=O)c2c[nH]c3ncc(-c4ccc(Cl)cc4)cc23)c1F + CC(Nc1ccc2c(c1)OCCn1cc(N3C(=O)OCC3C(F)F)nc1-2)C(N)=O", "233499-124-R-J3-PDC spheroids with HUVEC/MSC, viability", "=", 5.33],
  ["CCN1CCN(Cc2ccc(Nc3ncc(F)c(-c4cc(F)c5nc(C)n(C(C)C)c5c4)n3)nc2)CC1 + Cc1nc(NC(=O)N2CCCC2C(N)=O)sc1-c1ccnc(C(C)(C)C(F)(F)F)c1", "233499-124-R-J3-PDC spheroids with HUVEC/MSC, viability", "=", 6.26],
  ["C[C@@H](NC(=O)c1ncnc(N)c1Cl)c1ncc(C(=O)Nc2cc(C(F)(F)F)c(Cl)cn2)s1 + Cc1nc(NC(=O)N2CCCC2C(N)=O)sc1-c1ccnc(C(C)(C)C(F)(F)F)c1", "233499-124-R-J3-PDC spheroids with HUVEC/MSC, viability", "<", 5.00],
  ["CC(C)n1nc(-c2ccc3oc(N)nc3c2)c2c(N)ncnc21 + CC(Nc1ncnc2nc[nH]c12)c1cc2cccc(Cl)c2c(=O)n1-c1ccccc1", "233499-124-R-J3-PDC spheroids with HUVEC/MSC, viability", "=", 7.09],
  ["CNC(=O)c1ccc(N2C(=S)N(c3ccc(C#N)c(C(F)(F)F)c3)C(=O)C2(C)C)cc1F + CC(Nc1ncnc2nc[nH]c12)c1cc2cccc(Cl)c2c(=O)n1-c1ccccc1", "233499-124-R-J3-PDC spheroids with HUVEC/MSC, viability", "<", 5.00]
]}
